# Tested on: Leishmania amazonensis promastigote forms
# assay explanation: Leishmanicidal MTT assay on promastigote forms
# Type: cell-based
# recorded conditions: Leishmania amazonensis; promastigote forms, 48 h treatment, MTT; read-out: L. amazonensis IC50
property label: IC50 (µg/mL)
Express the result in µg/mL but write the number alone.

Check the records and state IC50 for C[C@@H]1[C@H](O)[C@@H](C)/C=C/C=C/C=C/C=C/C=C/C=C/C=C/[C@H](O[C@@H]2O[C@H](C)[C@@H](O)[C@H](N)[C@@H]2O)C[C@@H]2O[C@](O)(C[C@@H](O)C[C@@H](O)[C@H](O)CC[C@@H](O)C[C@@H](O)CC(=O)O[C@H]1C)C[C@H](O)[C@H]2C(=O)O [Amphotericin B, reference compound]
0.2

Give IC50 for COc1ccc2c(c1O)[C@@H]1Cc3cc4c(cc3CN1CC2)OCO4 [Compound 1]
0.18

Output IC50 of COC1C=CC2=CC(=O)N3C=Cc4cc5c(cc4C23C1)OCO5 (centres unmarked) [Compound 6, Crystamidine]
71.5

----------
# assay explanation: in vitro
# recorded conditions: mouse
property label: CC50 (µg/mL)
All answers are understood in µg/mL, so give the number only.

For COC1C=CC2=CC(=O)N3C=Cc4cc5c(cc4C23C1)OCO5 (stereo not drawn) , write its CC50.
59

Provide one value: measured CC50 of CO[C@H]1C=CC2=CCN3CCc4cc5c(cc4[C@]23C1)OCO5
69.3

Specify CC50 for COC1C=CC2=CCN3CC(O)c4cc5c(cc4C23C1)OCO5 (stereo not drawn) and stop.
60

----------
Provide the recorded CC50 at 48 h for the entries that follow.
# assay explanation: Macrophages in vitro cytotoxic assay (MTT)
# recorded conditions: mouse, J774A.1 macrophage cells
Answer with a number only, understood to be in µg/mL.

Specify CC50 at 48 h for COc1ccc2c(c1O)[C@@H]1Cc3cc4c(cc3CN1CC2)OCO4 and stop.
51.2

Using known records, supply CC50 at 48 h for COc1cc2c(cc1OC)CN1CCc3ccc(OC)c(O)c3[C@@H]1C2
96.6

----------
# assay explanation: in vitro
# recorded conditions: mouse
property label: CC50

Give the value of CC50 reported for the following: COc1cc2c(cc1OC)C13CC(OC)C(=O)C=C1CCN3CC2 (stereo not drawn)
> 1000 µg/mL

Give the reported value of CC50 for this record: COc1cc2c(cc1O)[C@]13C[C@@H](OC)C=CC1=CCN3CC2
> 1000 µg/mL

Tell me measured CC50 for COC1C=CC2=CC(=O)N3CCc4cc5c(cc4C23C1)OCO5 (stereo not drawn) please.
> 1000 µg/mL
